biological target: human IRAK4 (Homo sapiens (Human)); assay: IRAK4 kinase inhibition, Transcreener fluorescence polarization ADP assay; conditions: recombinant full-length His6-IRAK4; 125 uM ATP; 90 min; Ki computed using ATP Km 642 uM
Sequence (Q9NWZ3 whole entry): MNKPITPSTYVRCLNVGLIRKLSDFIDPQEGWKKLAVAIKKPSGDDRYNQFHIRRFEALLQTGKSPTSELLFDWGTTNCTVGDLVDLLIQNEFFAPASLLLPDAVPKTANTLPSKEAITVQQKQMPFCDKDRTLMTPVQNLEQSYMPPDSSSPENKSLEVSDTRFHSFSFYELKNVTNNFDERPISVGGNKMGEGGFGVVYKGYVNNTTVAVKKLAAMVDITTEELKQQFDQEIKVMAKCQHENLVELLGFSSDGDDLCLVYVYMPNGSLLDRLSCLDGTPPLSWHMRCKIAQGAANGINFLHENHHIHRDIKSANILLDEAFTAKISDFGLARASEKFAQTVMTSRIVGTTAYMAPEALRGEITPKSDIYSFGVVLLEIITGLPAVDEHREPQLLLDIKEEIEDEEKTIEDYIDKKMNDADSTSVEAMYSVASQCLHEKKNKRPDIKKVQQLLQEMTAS
Reported Metric: Ki (nM)

# count of solved cases: 2
compound=CC1(C)Cc2cc(NC(=O)c3cnn4cccnc34)c(N3CCCN(CC(F)F)CC3)cc2O1 system="human IRAK4 (Homo sapiens (Human))" reported_metric=Ki observed_measurement=25
compound=CC(=O)c1cnc2c(C(=O)Nc3cc4c(cc3N3CCOCC3)O[C@@](C)(CO)C4)cnn2c1 system="human IRAK4 (Homo sapiens (Human))" reported_metric=Ki observed_measurement=17

[A] C[C@@]1(O)COc2cc(N3CCC([C@](C)(O)C(F)(F)F)CC3)c(NC(=O)c3cnn4cccnc34)cc2C1
[B] CC1(COC(F)F)Cc2cc(NC(=O)c3cnn4cccnc34)c(N3CCN(CC(F)F)CC3)cc2O1 (stereo not shown)
Problem: Sort A and B by Ki descending and give the first. Response format: the label of the selected entry.
Solution: A
(A: 100 nM, B: 6.7 nM)
